Read-out: Forkhead box O1 (FOXO1), FOXO1 (gene 2308)
Experiment: LTEA_HepaRG_FOXO1: Life Technologies and Expression Analysis (LTEA) Assay for Forkhead box O1 (FOXO1) using HepaRG (AID 2283456)
Conditions: mRNA level, 48 h; actives raise or lower the signal
The source made the active and inactive calls. The calls were made as follows: active = hit-call score of the fitted dose curve at least 0.9, where 1 is the maximum; inactive = score below 0.9.
Outcomes: T = active, F = inactive

MOLECULE	CLASS_LABEL
CCc1nn(C2CCCCC2)c2cc(C3(C#N)CCC(C(=O)O)CC3)ccc12 (configuration not stated)	T
Cc1cc(CCN2CCN(c3nsc4ccccc34)CC2)cc2c1NC(=O)CC2(C)C	F
OCCC(F)(F)C(F)(F)C(F)(F)C(F)(F)C(F)(F)C(F)(F)F	F
C=C(C)C(=O)OCCC(F)(F)C(F)(F)C(F)(F)C(F)(F)C(F)(F)C(F)(F)F	F
OC1CCC(C2CCCCC2)CC1 (configuration not stated)	F
CC(C)(C)c1ccc(O)c(C(C)(C)C)c1	F
CN1CCC[C@H]1c1cccnc1	F
O=c1c(-c2ccc(O)cc2)coc2cc(O)ccc12	F
CCCCCCCCC(=O)O	F
CC[C@H](C)[C@@H](C(=O)O)n1sc2ccccc2c1=O	F
CCCCC(CC)COC(=O)CCCCC(=O)OCc1ccccc1 (configuration not stated)	F
O=C(O)c1ccccc1C(c1ccc(O)cc1)c1ccc(O)cc1	F

* * *

Read-out: Monokine induced gamma interferon (MIG), CXCL9 (gene 4283)
Assay: BSK_hDFCGF_MIG: BioMAP Diversity Plus: hDFCGF Assay for Monokine induced gamma interferon (MIG) Biomarker Activity (AID 2283063)
Conditions: primary human foreskin fibroblasts; actives raise or lower the signal
Activity calls are given as the source filed them. The calls were made as follows: active = hit-call score of the fitted dose curve at least 0.9, where 1 is the maximum; inactive = score below 0.9.

SMILES_REPRESENTATION	AC50
Oc1cc2ccccc2c2ccccc12	2.78 µM (active)
OC1CCCCC1	inactive
CC[C@H](C)[C@@H](C(=O)O)n1sc2ccccc2c1=O	inactive
Oc1cccc(O)c1	inactive
C#C[C@]1(O)CC[C@H]2[C@@H]3CCC4=CC(=O)CC[C@@H]4[C@H]3CC[C@@]21C	inactive
CCCOc1sc(C(=O)N2CCC(c3cc(CN)ccc3F)CC2)c(C)c1Br	9.21 µM (active)

* * *

Target: rat Mineralocorticoid Receptor (MR), Nr3c2 (gene 25672)
Experiment: NVS_NR_rMR: NovaScreen (NVS) Nuclear Receptor Binding Assay for rat Mineralocorticoid Receptor (MR) (AID 2283355)
Records with an inconclusive call do not appear. Calls of active or inactive are those of the source. The calls were made as follows: active = hit-call score of the fitted dose curve at least 0.9, where 1 is the maximum; inconclusive = response in the unintended direction; inactive = score below 0.9.
Outcomes: 1 for active, 0 for inactive

COMPOUND	CLASS_LABEL
CCC(=C(c1ccc(O)cc1)c1ccc(OCCN(C)C)cc1)c1ccccc1	0
COCC(C)O (centres undefined)	0
CC#C[C@]1(O)CC[C@H]2[C@@H]3CCC4=CC(=O)CCC4=C3[C@@H](c3ccc(N(C)C)cc3)C[C@@]21C	1
C#C[C@]1(O)CC[C@H]2[C@@H]3CCC4=CC(=O)CC[C@@H]4[C@H]3CC[C@@]21C	1

* * *

Read-out: succinate dehydrogenase complex iron sulfur subunit B (SDHB), SDHB (gene 6390)
Experiment: LTEA_HepaRG_SDHB: Life Technologies and Expression Analysis (LTEA) Assay for succinate dehydrogenase complex iron sulfur subunit B (SDHB) using HepaRG (AID 2283528)
Conditions: mRNA level, 48 h; actives raise or lower the signal
Protocol: LTEA_HepaRG is a cell based, multiplexed-readout assay that uses HepaRG, a human liver cell line, with measurements taken at 48 hours after chemical dosing on a 96-well plate.LTEA_HepaRG_SDHB is one of 102 assay component(s) measured in the LTEA HepaRG cell culture assay. It is a marker of Cell proliferation, survival, death.Data from the assay component LTEA_HepaRG_SDHB was analyzed into 1 endpoint. […]
Activity calls are given as the source filed them. Rule for the calls: active = hit-call score of the fitted dose curve at least 0.9, where 1 is the maximum; inactive = score below 0.9.
Outcomes: active, inactive

MOLECULE	CLASS_LABEL
CCC(C)(C)C1CCC(O)CC1 (stereo unspecified)	inactive
CCCCC(CC)COC(=O)CCCCC(=O)OCc1ccccc1 (stereo unspecified)	inactive
NC(=O)N1C(=O)C(C(=O)c2cc(Cl)cs2)c2cc(F)c(Cl)cc21 (stereo unspecified)	active
C[C@@H]1C[C@H]2[C@@H]3CCC4=CC(=O)C=C[C@]4(C)[C@@]3(F)[C@@H](O)C[C@]2(C)[C@@]1(O)C(=O)COP(=O)(O)O	inactive
CCN(CC)CCNc1ccc(CNC=O)c2sc3ccc(OC)cc3c(=O)c12	inactive
OC1CCCCC1	inactive
CN1CCN(c2ccccc2/C=C2\SCCN(c3ccc(Cl)c(Cl)c3)C2=O)CC1	inactive
CC(C)(C)c1ccc(O)c(C(C)(C)C)c1	inactive
Cc1oc(-c2ccccc2)nc1CCOc1ccc(C[C@H](Nc2ccccc2C(=O)c2ccccc2)C(=O)O)cc1	active
CC(C)(C)c1cccc(C(C)(C)C)c1O	inactive
CC(C)(C)CC(C)(C)c1ccc(O)c(-n2nc3ccccc3n2)c1	inactive
c1ccc2cc3c(ccc4ccccc43)cc2c1	inactive
CCCOC(=O)c1ccc(O)cc1	inactive
O=C(O)c1ccccc1C(c1ccc(O)cc1)c1ccc(O)cc1	inactive
N#C[C@@H]1CC(F)(F)CN1C(=O)CNC1CC2CCC(C1)N2c1ncccn1 (stereo partly specified)	inactive
CC[C@H](c1ccc(O)cc1)[C@@H](CC)c1ccc(O)cc1	active
CCCCCCCCCCCCCCCS(=O)(=O)Oc1ccccc1	inactive
ClC1=C(Cl)C(Cl)(Cl)C(Cl)=C1Cl	inactive
OCCC(F)(F)C(F)(F)C(F)(F)C(F)(F)C(F)(F)C(F)(F)C(F)(F)C(F)(F)F	inactive
COCC(C)OCC(C)O (stereo unspecified)	inactive
CCCCC(CC)COC(=O)CCCCC(=O)OCC(CC)CCCC (stereo unspecified)	inactive
CC(O)CO (stereo unspecified)	inactive
Oc1cccc(O)c1	inactive
CC(C)(C)c1cc(C(C)(C)C)c(O)c(C(C)(C)C)c1	inactive
OC1CCC(C2CCCCC2)CC1 (stereo unspecified)	inactive
CC#C[C@]1(O)CC[C@H]2[C@@H]3CCC4=CC(=O)CCC4=C3[C@@H](c3ccc(N(C)C)cc3)C[C@@]21C	active
